# Test system: Mycolicibacterium smegmatis MC2 155
# Procedure Text: Inhibition of STPK in Mycobacterium smegmatis MC2 155 expressing aminoglycoside phophotransferase-8 assessed as growth inhibition at 50 nmol/disk after 18 hrs in presence of kanamycin by paper disk method

Structure Smiles	Measurement Target	inhibition zone (IZ) / mm
Cc1cn(-c2nnc3ncc(SC(C)C)n3n2)cn1	Mycolicibacterium smegmatis MC2 155	13
Cc1cc(C)n(-c2nnc3ncc(SC(C)C)n3n2)n1	Mycolicibacterium smegmatis MC2 155	13.3
CCCCCCCNc1nnc2ncc(Sc3ccccc3)n2n1	Mycolicibacterium smegmatis MC2 155	12
c1cn(-c2nnc3nccn3n2)cn1	Mycolicibacterium smegmatis MC2 155	12.8

From: ChEMBL document CHEMBL4359813
